Could you please report measured Rate of increase in LPL activity for the items listed next?
# assayTarget: LPL (lipoprotein lipase) (Homo sapiens)
# Construct: endogenous in cells; host or cells: human skeletal muscle myoblasts, differentiated
# Sequence (P06858 28-475): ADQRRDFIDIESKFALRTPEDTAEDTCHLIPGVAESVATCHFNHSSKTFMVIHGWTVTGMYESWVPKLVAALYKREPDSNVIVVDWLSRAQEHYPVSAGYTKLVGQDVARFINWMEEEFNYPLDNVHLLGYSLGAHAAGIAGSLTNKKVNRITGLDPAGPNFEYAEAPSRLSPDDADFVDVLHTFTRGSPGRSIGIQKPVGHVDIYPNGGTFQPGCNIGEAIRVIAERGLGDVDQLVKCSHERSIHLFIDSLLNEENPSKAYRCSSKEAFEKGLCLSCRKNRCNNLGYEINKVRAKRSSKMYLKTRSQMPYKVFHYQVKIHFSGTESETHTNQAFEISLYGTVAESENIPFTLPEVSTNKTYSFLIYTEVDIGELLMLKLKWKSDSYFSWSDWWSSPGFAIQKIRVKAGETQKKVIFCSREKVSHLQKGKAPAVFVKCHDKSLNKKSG
# measurementProtocol: Confirmation test of LPL activation effect in human skeletal muscle cells
# Assay type: cell-based
# conditionNotes: amount of addition 30 μM, 8 hours exposure, vs control group
Give bare numbers, in %.

These recorded examples may help you get a feel for the data.
COc1cc(OCc2ccc(Cl)cc2)ccc1-c1c[nH]c(-c2ccc(C(F)(F)F)cc2)n1 28
COc1cc(OCc2ccc(Br)cc2F)ccc1-c1c[nH]c(-c2ccc(C(F)(F)F)cc2)n1 23
COc1cc(-c2c[nH]c(-c3ccc(C(F)(F)F)cc3)n2)ccc1OCc1ccc(Cl)cc1 57
COc1cc(OCc2ccc(Br)cc2F)ccc1-c1c[nH]c(-c2ccc(F)cc2)n1.Cl 40

# next molecule below
Query: LPL (lipoprotein lipase) (Homo sapiens) / Rate of increase in LPL activity / COc1cc(OCc2ccc(C#N)cc2)ccc1-c1c[nH]c(-c2ccc(F)cc2)n1.Cl : value?
Result: 32

---

# assayTarget: LPL (lipoprotein lipase) (Mus musculus)
# Construct: endogenous in cells; host or cells: C2C12 cells, differentiated
# Sequence (P11152 28-474): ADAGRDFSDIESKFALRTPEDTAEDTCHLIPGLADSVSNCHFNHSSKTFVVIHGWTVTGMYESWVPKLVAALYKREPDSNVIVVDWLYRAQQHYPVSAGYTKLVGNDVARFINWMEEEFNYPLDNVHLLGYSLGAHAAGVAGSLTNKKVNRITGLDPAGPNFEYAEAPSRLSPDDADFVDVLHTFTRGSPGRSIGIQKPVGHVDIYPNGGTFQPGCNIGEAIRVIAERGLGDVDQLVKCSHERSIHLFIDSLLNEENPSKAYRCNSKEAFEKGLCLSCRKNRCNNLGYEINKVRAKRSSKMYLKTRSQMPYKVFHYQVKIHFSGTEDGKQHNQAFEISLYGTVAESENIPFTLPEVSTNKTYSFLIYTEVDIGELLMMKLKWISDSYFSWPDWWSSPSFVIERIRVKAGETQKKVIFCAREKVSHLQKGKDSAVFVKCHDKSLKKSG
# measurementProtocol: Confirmation test of LPL activation effect in mouse skeletal muscle cells (C2C12 cells)
# Assay type: cell-based
# conditionNotes: amount of addition 10 μM, 8 hours exposure, vs control group
Could you please report measured Rate of increase in LPL activity for the items listed next?
One number for each entry, in %.

COc1cc(-c2c[nH]c(-c3ccccc3)n2)ccc1OCc1ccc(Cl)cc1 13

Could you report Rate of increase in LPL activity for every entry in the following list?
1. COc1cc(OCc2ccc(Br)cc2F)ccc1-c1c[nH]c(-c2ccc(C(C)(C)C)cc2)n1
2. COc1cc(OCc2ccc(Cl)cc2)ccc1-c1c[nH]c(-c2ccc(Cl)cc2)n1
3. COc1cccc(-c2nc(-c3ccc(OCc4ccc(Br)cc4F)cc3OC)c[nH]2)c1.Cl
4. COc1cc(OCc2ccc(C#N)cc2)ccc1-c1c[nH]c(-c2ccc(C(C)(C)C)cc2)n1
5. COc1cc(-c2c[nH]c(-c3ccsc3)n2)ccc1OCc1ccc(C#N)cc1
6. COc1cc(OCc2ccc(Br)cc2F)ccc1-c1c[nH]c(-c2ccccc2)n1.Cl
7. COc1cc(OCc2ccccc2)ccc1-c1c[nH]c(-c2ccc(Cl)cc2)n1
8. COc1cc(OCc2ccc(Cl)cc2)ccc1-c1c[nH]c(-c2ccc(F)c(F)c2)n1

Result:
1. 18
2. 27
3. 14
4. 36
5. 24
6. 96
7. 11
8. 58

Could you report Rate of increase in LPL activity for every entry in the following list?
1. COc1cc(-c2c[nH]c(-c3ccc(C(F)(F)F)cc3)n2)ccc1OCc1ccc(C(F)(F)F)cc1
2. COc1cc(-c2c[nH]c(-c3ccc(F)cc3)n2)ccc1OCc1ccccc1C#N
3. COc1cc(-c2c[nH]c(-c3ccsc3)n2)ccc1OCc1ccc(Cl)cc1
4. COc1cc(OCc2ccccc2)ccc1-c1c[nH]c(-c2ccc(F)cc2)n1.Cl
5. COc1cc(OCc2ccc(Cl)cc2)ccc1-c1c[nH]c(-c2ccsc2)n1.Cl
6. COc1cc(-c2c[nH]c(-c3ccc(C)cc3)n2)ccc1OCc1ccccc1.Cl
7. COc1cc(-c2c[nH]c(-c3cc(Cl)cc(Cl)c3)n2)ccc1OCc1ccccc1

Result:
38
20
42
47
22
14
79

Could you report Rate of increase in LPL activity for every entry in the following list?
1. COc1cc(-c2c[nH]c(-c3cccs3)n2)ccc1OCc1ccc(Br)cc1F
2. COc1cc(OCc2ccccc2)ccc1-c1c[nH]c(C(C)C)n1
3. COc1cc(OCc2ccc(Br)cc2F)ccc1-c1c[nH]c(-c2cccc(Cl)c2)n1.Cl

Result:
1. 22
2. 11
3. 12

Could you report Rate of increase in LPL activity for every entry in the following list?
1. COc1cc(OCc2ccccc2)ccc1-c1c[nH]c(-c2ccc(Cl)c(Cl)c2)n1.Cl
2. COc1cc(OCc2ccc(Cl)cc2)ccc1-c1c[nH]c(-c2cccc(F)c2)n1.Cl
3. COc1cc(OCc2ccc(Br)cc2F)ccc1-c1c[nH]c(-c2ccc(C(=O)O)cc2)n1.Cl
4. COc1cc(OCc2ccc(Br)cc2F)ccc1-c1c[nH]c(-c2ccc(Cl)cc2)n1
5. COc1cc(-c2c[nH]c(-c3cccc(F)c3)n2)ccc1OCc1ccc(Cl)cc1.Cl
6. COc1ccc(-c2nc(-c3ccc(OCc4ccccc4)cc3OC)c[nH]2)cc1.Cl

Result:
1: 93; 2: 14; 3: 9; 4: 21; 5: 16; 6: 49

Could you report Rate of increase in LPL activity for every entry in the following list?
1. COc1cc(OCc2ccc(Cl)cc2)ccc1-c1c[nH]c(-c2ccc(F)cc2)n1
2. COc1cc(OCc2ccc(Cl)cc2F)ccc1-c1c[nH]c(-c2ccc(C(F)(F)F)cc2)n1

Result:
1: 64; 2: 35
